test system: colon adenocarcinoma (DLD-1) cell line; test: Cytotoxicity assay (resazurin reduction test), DLD-1; format: cell-based; settings: Homo sapiens, DLD-1 cells, 48 h incubation, read-out: IC50 (μM ± SD) DLD-1
property: IC50 (µM)

COc1cc([C@@H]2c3cc4c(cc3[C@@H](O[C@@H]3O[C@@H]5CO[C@@H](C)O[C@H]5[C@H](O)[C@H]3O)[C@H]3COC(=O)[C@H]23)OCO4)cc(OC)c1O [Etoposide, reference compound]
4.8

###

System: colon adenocarcinoma (DLD-1) cell line
Assay: Cytotoxicity assay (resazurin reduction test), DLD-1
Format: cell-based
Conditions: Homo sapiens, DLD-1 cells, 48 h incubation, read-out: IC50 (μM ± SD) DLD-1
Protocol: Lung carcinoma (A549), colon adenocarcinoma (DLD-1) and normal skin fibroblast (WS1) human cell lines were purchased from the American Type Culture Collection (ATCC). All cell lines were cultured in minimum essential medium containing Earle’s salts and L-glutamine (Mediatech Cellgro, VA), to which 10% fetal bovine serum (Hyclone), vitamins (1X), penicillin (100 I.U./mL), streptomycin (100 μg/ml), essential amino acids (1X) and sodium pyruvate (1X) (Mediatech Cellgro, VA) were added. […]
// reported IC50 per item
property: IC50 (µM)

CC1CCC2(OC1)OC1CC3C4CC(O)C5CC(OC6OC(CO)C(OC7OC(CO)C(O)C(OC8OC(CO)C(O)C(O)C8O)C7OC7OC(CO)C(O)C(O)C7O)C(O)C6O)CCC5(C)C4CCC3(C)C1C2C (centres unmarked) [Eruboside B (2), eruboside B]
8.2
CC1CCC2(OC1)OC1CC3C4CC(O)C5CC(OC6OC(CO)C(OC7OC(CO)C(O)C(OC8OCC(O)C(O)C8O)C7OC7OC(CO)C(O)C(O)C7O)C(O)C6O)C(O)CC5(C)C4CCC3(C)C1C2C (centres unmarked) [Aginoside (3), aginoside]
7.9
C[C@@H]1CC[C@@]2(OC1)O[C@H]1C[C@H]3[C@@H]4C[C@@H](O)[C@H]5C[C@@H](O[C@@H]6O[C@H](CO)[C@H](O[C@@H]7O[C@H](CO)[C@@H](O)[C@H](O[C@@H]8O[C@H](CO)[C@@H](O)[C@H](O)[C@H]8O)[C@H]7O[C@@H]7O[C@H](CO)[C@@H](O)[C@H](O[C@@H]8O[C@H](CO)[C@@H](O)[C@H](O)[C@H]8O)[C@H]7O)[C@H](O)[C@H]6O)[C@H](O)C[C@]5(C)[C@H]4CC[C@]3(C)[C@H]1[C@@H]2C [Leucospiroside A (5)]
7.2
C[C@@H]1CC[C@@]2(OC1)O[C@H]1C[C@H]3[C@@H]4C[C@@H](O)[C@H]5C[C@@H](O[C@@H]6O[C@H](CO)[C@H](O[C@@H]7O[C@H](CO)[C@@H](O)[C@H](O[C@@H]8O[C@H](CO)[C@@H](O)[C@H](O)[C@H]8O)[C@H]7O[C@@H]7O[C@H](CO)[C@@H](O)[C@H](O[C@@H]8O[C@H](CO)[C@@H](O)[C@H](O)[C@H]8O)[C@H]7O)[C@H](O)[C@H]6O)CC[C@]5(C)[C@H]4CC[C@]3(C)[C@H]1[C@@H]2C
8.9
O=c1[nH]cc(F)c(=O)[nH]1 [5-fluorouracil, reference compound]
11
C[C@@H]1CC[C@@]2(OC1)O[C@H]1C[C@H]3[C@@H]4C[C@@H](O)[C@H]5C[C@@H](O[C@@H]6O[C@H](CO)[C@H](O[C@@H]7O[C@H](CO)[C@@H](O)[C@H](O[C@@H]8OC[C@@H](O)[C@H](O)[C@H]8O)[C@H]7O[C@@H]7O[C@H](CO)[C@@H](O)[C@H](O)[C@H]7O)[C@H](O)[C@H]6O)CC[C@]5(C)[C@H]4CC[C@]3(C)[C@H]1[C@@H]2C
13
C[C@@H]1CC[C@@]2(OC1)O[C@H]1C[C@H]3[C@@H]4C[C@@H](O)[C@H]5C[C@@H](O[C@@H]6O[C@H](CO)[C@H](O[C@@H]7O[C@H](CO)[C@@H](O)[C@H](O)[C@H]7O[C@@H]7O[C@H](CO)[C@@H](O)[C@H](O)[C@H]7O)[C@H](O)[C@H]6O)[C@H](O)C[C@]5(C)[C@H]4CC[C@]3(C)[C@H]1[C@@H]2C
22
CC1CCC2(OC1)OC1CC3C4CC(O)C5CC(OC6OC(CO)C(OC7OC(CO)C(O)C(OC8OC(CO)C(O)C(O)C8O)C7OC7OC(CO)C(O)C(O)C7O)C(O)C6O)C(O)CC5(C)C4CCC3(C)C1C2C (centres unmarked)
5.6
